Where do the numbers come from? From ChEMBL document CHEMBL1141669.

Target or system Mu-type opioid receptor (Homo sapiens): recorded pKi listed per item.
Numbers only, as −log10 of the molar value.

given_smiles: N#CC1(c2ccccc2)CCN(Cc2ccccc2)CC1
pKi: 5.23

Shifting focus to the molecule that follows.
Entry `N#CC1(c2ccccc2)CCN(CCCCc2ccccc2)CC1` : reported pKi = ?
5.01

###

- Species on record: Rattus norvegicus
- protocol: Selectivity ratio of Ki for rat sigma 2 opioid receptor to Ki for rat sigma 1 opioid receptor
readout_kind: Ratio Ki
Numbers only.

compound: C=C(C)CN1CCC(C#N)(c2ccccc2)CC1
numeric_readout: 130

compound: c1ccc(CCN2CCN(c3ccccn3)CC2)cc1
numeric_readout: 0.53

compound: C=CCN1CCC(C#N)(c2ccccc2)CC1
numeric_readout: 300

compound: N#CC1(c2ccccc2)CCN(CCCc2ccccc2)CC1
numeric_readout: 120

Shifting focus to the compound that follows.
Entry c1ccc(CCN2CCCCC2)cc1 [1-PHENETHYLPIPERIDINE] : reported Ratio Ki = ?
5

###

- measured_on: Sigma non-opioid intracellular receptor 1 (Rattus norvegicus)
- Sequence (Q9R0C9 whole entry): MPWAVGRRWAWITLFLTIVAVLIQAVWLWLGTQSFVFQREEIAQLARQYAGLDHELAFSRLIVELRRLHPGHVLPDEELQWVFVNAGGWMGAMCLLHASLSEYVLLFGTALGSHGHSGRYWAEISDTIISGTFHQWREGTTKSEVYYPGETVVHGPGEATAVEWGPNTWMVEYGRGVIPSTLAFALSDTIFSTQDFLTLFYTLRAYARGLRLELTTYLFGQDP
- protocol: Displacement of [3H](+)-pentazocine from sigma 1 opioid receptor in rat brain cerebellum
Hi there, I'd appreciate the recorded Ki for every entry that follows.
Give bare numbers, in nM.

Some compounds with recorded Ki:
given_smiles: c1ccc(CCN2CCCCC2)cc1
readout_kind: Ki
unit_string: nM
numeric_readout: 30

given_smiles: CN1CCC(C#N)(c2ccccc2)CC1
readout_kind: Ki
unit_string: nM
numeric_readout: 113

given_smiles: C=CCN1CCC(C#N)(c2ccccc2)CC1
readout_kind: Ki
unit_string: nM
numeric_readout: 2.2

Entry `CC(C)CN1CCC(C#N)(c2ccccc2)CC1` , system Sigma non-opioid intracellular receptor 1 (Rattus norvegicus): what Ki was measured?
0.35

###

pKi: −log10 of the molar value.
Target or system Mu-type opioid receptor (Homo sapiens): recorded pKi listed per item.

given_smiles: C=CCN1CCC(C#N)(c2ccccc2)CC1
measured_on: Mu-type opioid receptor (Homo sapiens)
Sequence (P35372 whole entry): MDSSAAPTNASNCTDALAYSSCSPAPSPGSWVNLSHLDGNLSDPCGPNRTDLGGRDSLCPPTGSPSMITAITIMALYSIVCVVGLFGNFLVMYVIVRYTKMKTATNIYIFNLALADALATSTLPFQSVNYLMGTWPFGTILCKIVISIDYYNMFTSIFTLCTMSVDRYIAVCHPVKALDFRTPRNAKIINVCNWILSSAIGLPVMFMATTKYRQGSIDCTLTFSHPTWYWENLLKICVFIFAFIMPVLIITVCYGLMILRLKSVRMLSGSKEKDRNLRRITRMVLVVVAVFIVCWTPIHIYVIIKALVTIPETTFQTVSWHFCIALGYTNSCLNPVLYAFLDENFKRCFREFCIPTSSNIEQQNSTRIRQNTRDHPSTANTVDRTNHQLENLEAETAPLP
pKi: < 5.00
--
given_smiles: CN1CCC(C#N)(c2ccccc2)CC1
measured_on: Mu-type opioid receptor (Homo sapiens)
pKi: < 5.00

Shifting focus to the compound that follows.
Entry `C=C(C)CN1CCC(C#N)(c2ccccc2)CC1` : reported pKi = ?
< 5.00
